Just for reference, paper PMC8886574 is where these values come from.

# Tested on: SH-SY5Y neuroblastoma cells
# run-description: Neuroprotection against 6-OHDA insult, MTT cell viability assay
# Format: cell-based, Human
# assay-conditions: 0–300 μM, pre-incubation 1 hour, 6-OHDA 24 hours
reported-property: neuroprotection against 6-OHDA (in words)

compound: Cc1nc(Cc2ccccc2)c(=O)n(O)c1C [Ligand 6c]
data-value: partially prevented
//
compound: O=c1cncc(-c2ccc(O)cc2)n1O [Ligand 10d]
data-value: partially prevented

====

// values below are reported pKa
# run-description: Protonation constants (log K) of ligands by UV-visible spectrophotometric titration vs. pH
# Assay type: physicochemical
# assay-conditions: value used as input for BBB score (Tables S1–S6)

molecule: Cc1nc(Cc2ccccc2)c(=O)n(O)c1C [Ligand 6c]
pKa: 5.53
//
molecule: Cc1ncc(=O)n(O)c1C [Ligand 6a, 1-Hydroxy-5,6-dimethylpyrazin-2(1H)-one]
pKa: 4.58
//
molecule: Cc1nc(Cc2ccc(O)cc2)c(=O)n(O)c1C [Ligand 6d]
pKa: 5.96
//
molecule: O=c1cncc(-c2ccc(O)cc2)n1O [Ligand 10d]
pKa: 4
//
molecule: Cc1cncc(=O)n1O [Ligand 11a, 1-Hydroxy-6-methylpyrazin-2(1H)-one]
pKa: 3.98

Please examine the following record next.
What measured pKa goes with O=c1cncc(-c2ccccc2)n1O [Ligand 10a, 1-Hydroxy-6-phenylpyrazin-2(1H)-one] ?
3.18

====

# run-description: Solubility as observed during the studies (in words)
# Format: physicochemical
# assay-conditions: water
reported-property: solubility in water (in words)

compound: O=c1cncc(-c2ccc(F)cc2)n1O [Ligand 10c]
reported-property: solubility in water (in words)
data-value: low water solubilities

compound: COc1ccc(-c2cncc(=O)n2O)cc1 [Ligand 10b]
reported-property: solubility in water (in words)
data-value: low water solubilities

====

# run-description: Distribution coefficients (log D7.4), Shake Flask method, n-octanol / HEPES buffer pH 7.4
# Type: physicochemical
# assay-conditions: free ligand, n-octanol / HEPES buffered aqueous phase pH 7.4
// values below are reported logD
Give the value as a plain number.

These solved cases illustrate the format of a correct answer.
compound: Cc1ncc(=O)n(O)c1C [Ligand 6a, 1-Hydroxy-5,6-dimethylpyrazin-2(1H)-one]
logD: -1.73
--
compound: Cc1cncc(=O)n1O [Ligand 11a, 1-Hydroxy-6-methylpyrazin-2(1H)-one]
logD: -0.4

Please examine the following record next.
What measured logD goes with O=c1cncc(-c2ccccc2)n1O [Ligand 10a, 1-Hydroxy-6-phenylpyrazin-2(1H)-one] ?
-1.2

====

# run-description: Trolox equivalent antioxidant capacity (TEAC) assay, ABTS radical cation decolorization
# Assay type: biochemical
# assay-conditions: t = 6 min
# Experimental: 2,2′-Azinobis-(3-ethylbenzothiazoline)-6-sulfonic acid radical cation (ABTS˙^+) is a blue/green chromophore that absorbs at 745 nm and was produced through the reaction between ABTS and potassium persulfate. […] TEAC values were calculated according to an ABTS radical cation decolorization assay. […]
Mark Criterion met only when Antioxidant activity as TEAC stays strictly below 0.6 mM. Values equal to the cut-off are Criterion not met.

Recorded results for 3 molecules are shown here.
molecule: Cc1ncc(=O)n(O)c1C [Ligand 6a, 1-Hydroxy-5,6-dimethylpyrazin-2(1H)-one]
label-class: Criterion met
--
molecule: Cc1nc(Cc2ccccc2)c(=O)n(O)c1C [Ligand 6c]
label-class: Criterion met
--
molecule: Cc1cncc(=O)n1O [Ligand 11a, 1-Hydroxy-6-methylpyrazin-2(1H)-one]
label-class: Criterion met

Would you kindly verify if Antioxidant activity as TEAC of Cc1nc(Cc2ccc(O)cc2)c(=O)n(O)c1C [Ligand 6d] is strictly less than 0.6 mM?
Criterion not met

Would you kindly verify if Antioxidant activity as TEAC of O=c1cncc(-c2ccccc2)n1O [Ligand 10a, 1-Hydroxy-6-phenylpyrazin-2(1H)-one] is strictly less than 0.6 mM?
Criterion not met
